Target: NEK2 (human) (UniProt P51955)
Sequence (P51955 whole entry, looked up): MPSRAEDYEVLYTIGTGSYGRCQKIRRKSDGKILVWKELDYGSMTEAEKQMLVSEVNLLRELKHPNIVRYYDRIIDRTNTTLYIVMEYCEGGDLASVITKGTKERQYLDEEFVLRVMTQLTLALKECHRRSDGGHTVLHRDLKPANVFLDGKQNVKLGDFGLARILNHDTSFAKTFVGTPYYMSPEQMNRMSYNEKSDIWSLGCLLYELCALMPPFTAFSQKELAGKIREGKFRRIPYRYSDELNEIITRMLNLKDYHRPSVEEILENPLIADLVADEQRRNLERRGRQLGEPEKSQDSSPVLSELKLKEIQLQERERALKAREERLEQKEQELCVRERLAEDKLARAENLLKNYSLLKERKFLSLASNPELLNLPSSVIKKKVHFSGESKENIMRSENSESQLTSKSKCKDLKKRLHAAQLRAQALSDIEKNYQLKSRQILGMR
Assay: KINOMEscan competition binding
Conditions: compound 10.0 µM
Kindly supply the reported kinase still bound, per cent of control values for the records listed here.
Expressed in %, but write only the number.

I'd like to know its kinase still bound, per cent of control. The molecule in question is COc1cc(N2CCN(C)CC2)ccc1Nc1ncc2c(n1)N(C)c1ccccc1N(C)C2=O
96

Same again, this time with N=C1NC(=O)/C(=C/c2c[nH]c(=O)c(-c3ccc(S(N)(=O)=O)cc3)c2)S1
30

Same again, this time with COc1cc(N2CCN(C)CC2)ccc1Nc1ncc2c(n1)N(C)c1sccc1C(=O)N2C
83

Same again, this time with N=C1NC(=O)/C(=C/c2c[nH]c(=O)c(-c3ccc(N4CCNCC4)nc3)c2)S1
13

Same again, this time with CN1CCN(c2ccc(C(=O)Nc3ncc4c(n3)N(C)c3ccccc3C(=O)N4C)cc2)CC1
100
